Test system: PLC/PRF/5 liver cancer cell strains
Experiment: Tetrazolium salt reduction method (MTT) on human liver cancer cell strain PLC/PRF/5
Format: cell-based
Conditions: Homo sapiens, PLC-PRF-5; MTT, cells cultured 3-5 days; read-out: PLC/PRF/5 IC50
REPORTED_ENDPOINT: pIC50
Recall that pIC50 is obtained by taking minus log10 of the concentration measured in molar.

Below, each entry is followed by its recorded pIC50 result.
COc1cc2c3cc1Oc1c(OC)c(OC)c(Br)c4c1[C@H](Cc1c([N+](=O)[O-])cc(OC)c(c1Br)Oc1ccc(cc1)C[C@@H]3N(C)CC2)N(C)CC4 = 4.92
COc1cc2c3cc1Oc1c(OC)c(OC)c(Br)c4c1[C@H](Cc1c(S(=O)(=O)O)cc(OC)c(c1Br)Oc1ccc(cc1)C[C@@H]3N(C)CC2)N(C)CC4 = 5.05

Given the molecule COc1cc(S(=O)(=O)Nc2ccccc2)c2cc1Oc1ccc(cc1)C[C@H]1c3cc(c(OC)cc3CCN1C)Oc1c(OC)c(OC)cc3c1[C@H](C2)N(C)CC3 and test system PLC/PRF/5 liver cancer cell strains, the measured pIC50 is 4.99

* * *

Tested on: BEL-7402 cell
Test: Sulforhodamine B (SRB) growth inhibition of human liver cancer cell strain BEL-7402
Type: cell-based
Settings: 1.00 × 10^−5 mol/L; SRB, cells cultured 72 h
REPORTED_ENDPOINT: BEL-7402/ Inhibition (%)

COc1cc(NC(=O)c2ccco2)c2cc1Oc1ccc(cc1)C[C@H]1c3cc(c(OC)cc3CCN1C)Oc1c(OC)c(OC)cc3c1[C@H](C2)N(C)CC3 = 87.23 ± 2.26%
COc1cc(NC(=O)N2CCOCC2)c2cc1Oc1ccc(cc1)C[C@H]1c3cc(c(OC)cc3CCN1C)Oc1c(OC)c(OC)cc3c1[C@H](C2)N(C)CC3 = 89.60 ± 2.01%
COc1cc(NS(=O)(=O)c2ccc(C)cc2)c2cc1Oc1ccc(cc1)C[C@H]1c3cc(c(OC)cc3CCN1C)Oc1c(OC)c(OC)cc3c1[C@H](C2)N(C)CC3 = 93.91 ± 0.40%
COc1cc(NS(=O)(=O)c2ccc([N+](=O)[O-])cc2)c2cc1Oc1ccc(cc1)C[C@H]1c3cc(c(OC)cc3CCN1C)Oc1c(OC)c(OC)cc3c1[C@H](C2)N(C)CC3 = 92.70 ± 0.55%
COc1cc(NS(=O)(=O)c2ccc(Cl)cc2)c2cc1Oc1ccc(cc1)C[C@H]1c3cc(c(OC)cc3CCN1C)Oc1c(OC)c(OC)cc3c1[C@H](C2)N(C)CC3 = 90.01 ± 2.82%

// below: BEL-7402/ Inhibition (%) requested for another molecule
Form field, BEL-7402/ Inhibition (%) with BEL-7402 cell, item COc1cc(NC(=O)c2cccs2)c2cc1Oc1ccc(cc1)C[C@H]1c3cc(c(OC)cc3CCN1C)Oc1c(OC)c(OC)cc3c1[C@H](C2)N(C)CC3 : 93.40 ± 4.70%

* * *

Test system: PLC/PRF/5 liver cancer cell strains
Assay: Tetrazolium salt reduction method (MTT) on human liver cancer cell strain PLC/PRF/5
Format: cell-based
Details: Homo sapiens, PLC-PRF-5; MTT, cells cultured 3-5 days; read-out: PLC/PRF/5 IC50
Item-by-item account of IC50
Field note: include the unit after the figure.

// IC50 lookup, molecule = COc1ccc2cc1Oc1ccc(cc1)C[C@H]1c3cc(c(OC)cc3CCN1C)Oc1c(ON=O)c(OC)cc3c1[C@H](C2)N(C)CC3 , result: 3.4 µM

Short answer for COc1cc(N)c2cc1Oc1ccc(cc1)C[C@H]1c3cc(c(OC)cc3CCN1C)Oc1c(OC)c(OC)cc3c1[C@H](C2)N(C)CC3 : IC50 was 14.8 µM

Sample COc1cc([N+](=O)[O-])c2cc1Oc1ccc(cc1)C[C@H]1c3cc(c(OC)cc3CCN1C)Oc1c(OCc3ccccc3)c(OC)cc3c1[C@H](C2)N(C)CC3 ; IC50 observed: 8.9 µM
